subject_of_test: Mrgpra3 (Mus musculus, UniProt Q91WW3)
Sequence (Q91WW3 1-302): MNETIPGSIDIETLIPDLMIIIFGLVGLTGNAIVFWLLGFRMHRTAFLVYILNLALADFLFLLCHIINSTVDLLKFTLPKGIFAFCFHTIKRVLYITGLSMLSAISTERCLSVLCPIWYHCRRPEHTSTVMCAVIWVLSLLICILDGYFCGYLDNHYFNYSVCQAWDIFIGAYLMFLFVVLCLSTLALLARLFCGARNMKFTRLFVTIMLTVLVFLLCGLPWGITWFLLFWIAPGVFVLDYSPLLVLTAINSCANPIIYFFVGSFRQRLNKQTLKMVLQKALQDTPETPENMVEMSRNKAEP
experiment_summary: FLIPR calcium imaging, HEK293 expressing Mrgpra3
Assay type: cell-based
pEC50: −log10 of the molar value. Positions of bridges follow the written chain, without caps; N, C: chain ends. No end group written: not given here.
measure_name: pEC50

| sequence | observed_value |
| --- | --- |
| FLPKTLRKFFCRIRGGRCAVLNCLGKEEQIGRCSNSGRKCCRKKK (disulfide 11-40, 18-33, 23-41) [Defb14] | 6.00 |
